Provenance of the data: ChEMBL document CHEMBL3272335

# experiment_summary: Ulcerogenicity in po dosed Wistar rat assessed as induction of gastric irritation
# Format: toxicity, organism-based, Stomach
# particulars: in vivo, read-out: ID50 (the source's name)
attribute_measured: TD50 (mg/kg)
One number for each entry, in mg/kg.

[Q] Form field: reported TD50 of "COc1ccc2c(c1)c(CC(=O)O)c(C)n2C(=O)c1ccc(Cl)cc1"
[A] 1.8

***
[Q] What TD50 value was documented for this molecule, "O=C(O)Cc1ccc2c(c1)C(=O)c1ccccc1CO2" ?
[A] 82.5
